assay_text: Half life in Sprague-Dawley rat at 2.5 mg/kg, iv
Type: ADME, organism-based
Set-up: dose 2.5 mg/kg, route intravenous
test_conditions: in vivo
property_label: half-life (min)
Kindly answer with a numeric value in min, unit omitted.

Problem: Which half-life reading was recorded for the molecule `CCN(CC)C(=O)[C@]1(c2ccccc2)C[C@H]1CN` ?
Result: 48

---

assay_text: Plasma clearance in Sprague-Dawley rat at 5 mg/kg, iv
Type: ADME, organism-based
Parameters: dose 5 mg/kg, route intravenous
property_label: clearance (mL/min/kg)
Kindly answer with a numeric value in mL/min/kg, unit omitted.

Problem: Which clearance reading was recorded for the compound `C=C(F)CN(CC)C(=O)[C@@]1(c2cccs2)C[C@H]1CN` ?
Result: 140

Problem: Which clearance reading was recorded for the compound `C=CCN(CC=C)C(=O)[C@@]1(c2cccs2)C[C@H]1CN` ?
Result: 102
